# Protocol: gradient 5% acetonitrile 3 min, to 50% in 2 min, to 85% in 15 min, held 3 min, 100 µL/min
# Test Context: column: Zorbax Extend-C18 2.1 x 50 mm; eluents: water / acetonitrile, 0.1% formic acid
Property Name: RP-LC retention time (s)

Study these solved cases before continuing.
Cc1sc(-c2cc(C(F)(F)F)on2)cc1S(=O)(=O)NCC(C)c1ccccc1 (centres undefined)
1230
CCOc1ccc2nc(NC3=NCN(Cc4cccnc4)CN3)nc(C)c2c1
580
Cc1ccc(CNC(=O)c2c(C)sc3ncnc(N4CCCCC4)c23)cc1
1070
COC(=O)c1ccccc1Nc1c(-c2ccccc2)nc2cnc(Br)cn12
1090
Cc1ccc(CN2CC(Oc3ccc(-c4noc(-c5ccncc5)n4)cc3)C2)o1
681

(I) O=c1ccc(-c2ccc3c(c2)OCO3)nn1CCc1nc(-c2ccc(Br)cc2)no1
(II) Cc1ccnc(N2CCCC(C(=O)NCc3ccc4c(c3)OCO4)C2)n1 (centres undefined)
Exercise: Smaller RP-LC retention time value? Options are I and II Label of pick, please.
Key: II
(II: 692 s, I: 1050 s)

* * *

# Protocol: gradient 5% acetonitrile 3 min, to 50% in 2 min, to 85% in 15 min, held 3 min, 100 µL/min
# Test Context: column: Zorbax Extend-C18 2.1 x 50 mm; eluents: water / acetonitrile, 0.1% formic acid
Property Name: RP-LC retention time (s)

Study these solved cases before continuing.
Cn1nc(C(=O)N2CCCCC2)c2c1CCN(C(=O)CCC(=O)N1CCCC1)C2
622
Cc1ccc(NC(=O)Cc2c(C(=O)O)c(C)cn2C)c(C)c1
771
Cc1cc(Cl)ccc1S(=O)(=O)N1CCC2(CC1)c1nccn1CCN2C
697
Cc1noc(C)c1-c1ccc(S(=O)(=O)Nc2ccc(Br)cc2F)cc1
1010
Cc1ccc(NC(=O)Cn2nc3c(N4CC(C)CC(C)C4)nccn3c2=O)cc1 (stereo not given)
884

(P) CCCN(C)C(=O)c1cc2c(s1)N(CCC)CCCC2
(Q) CC1(C)C(=O)N(CC(=O)Nc2c3c(nc4ccccc24)CCCC3)c2ccccc21
Exercise: Smaller RP-LC retention time value? Options are P and Q Label of pick, please.
Key: Q
(Q: 664 s, P: 1170 s)

* * *

# Protocol: gradient 5% acetonitrile 3 min, to 50% in 2 min, to 85% in 15 min, held 3 min, 100 µL/min
# Test Context: column: Zorbax Extend-C18 2.1 x 50 mm; eluents: water / acetonitrile, 0.1% formic acid
Property Name: RP-LC retention time (s)

Study these solved cases before continuing.
CC(C)NC(=O)c1cc(-c2ccc(F)cc2)cn1C
926
COC(=O)c1ccccc1NS(=O)(=O)c1ccc(Br)cc1
1030
CSc1cccc(NC(=O)N2CCN(c3cc(C)nc(N4CCOCC4)n3)CC2)c1
650
COCc1nc2cccnc2n1C1CCN(C(=O)Nc2ccccc2C(=O)OC)CC1
784
CC(C)S(=O)(=O)N1CCC(CCOc2ccccc2)C1 (centres undefined)
980

(A) Cn1nc(C(=O)N2CCCN(c3cc(-c4ccc(Br)cc4)[nH]n3)CC2)c2ccccc21
(B) Cc1ccc(C2Cn3nnc(-c4nc(-c5cccc(F)c5)no4)c3CO2)c(C)c1 (centres undefined)
Exercise: Compare the recorded RP-LC retention time of A and B ; state which is larger. Label of pick, please.
Key: B
(B: 1300 s, A: 807 s)

(A) C=CCN1C(=O)COc2ccc(-c3csc(NC(=O)c4cccc(Cl)c4)n3)cc21
(B) COCCNC(=O)c1ccc2c(c1)CCCN2S(C)(=O)=O
Exercise: Compare the recorded RP-LC retention time of A and B ; state which is larger. Label of pick, please.
Key: A

The reported numbers originate from the METLIN SMRT retention time set (Domingo-Almenara et al. 2019).
